- Test system: 3T3 cells
- experimentalProtocol: MTT cell proliferation assay, 3T3 cells
- Assay type: cell-based
- conditionParameters: Mus musculus, NIH3T3; 3T3 fibroblast cells; approximately 64-72 hours incubation
observationType: IC50

Nc1ccc(/C=C/C(=O)NCc2cc3cc(-c4ccc(C(=O)N5CCC(F)(F)CC5)cc4)cc(Oc4ccc(F)cc4)c3o2)cn1 [Compound 100] : 100 to 5000 nM
Nc1ccc(/C=C/C(=O)NCc2cc3cc(-c4ccc(C(=O)N5CCC(F)(F)CC5)cc4F)cc(Oc4ccc(F)cc4)c3o2)cn1 [Compound 103] : 100 to 5000 nM

# evaluate next
Tell us which IC50 value is on record for Nc1ccc(/C=C/C(=O)NCc2cc3cc(-c4ccc(C(=O)N5CCC(F)(F)CC5)cc4F)cc(Oc4cccc(F)c4)c3o2)cn1 [Compound 102]
100 to 5000 nM
